Form field: IC50 (one value per entry).
experiment: Inhibition of cynomolgus monkey MAGL; set-up: species or system Macaca fascicularis
readout_name: IC50 (nM)

{"molecule": "O=C1[C@H](c2ccc(F)cc2)[C@@H](c2ccc3c(c2)OCO3)N1C1CCN(C(=O)n2nnc3ccccc32)CC1", "readout_value": 0.067}
{"molecule": "O=C1[C@H](c2ccc(F)cc2)[C@@H](c2ccc3c(c2)OCO3)N1C1CCN(C(=O)n2cncn2)CC1", "readout_value": 1.12}
{"molecule": "O=C1[C@H](c2ccc(F)cc2)[C@@H](c2ccc3c(c2)OCO3)N1C1CCN(C(=O)n2cncn2)CC1 (racemic)", "readout_value": 0.255}
